- System: anaesthetized dog
- protocol details: Antiangorous activity on anaesthetized dog: consumption of oxygen in the left ventricule and cardiac effort (KATZ's index)
- Type: in vivo
- condition set: Canis lupus familiaris, iv, 2.3 mg/kg i.v. slow perfusion, read-out: Diminution in consumption of O2

molecule	target system	unit symbol	inhibition in vivo at 2.3 mg/kg
COc1cc(/C=C/C(=O)N2CCN(CC(O)COc3ccccc3F)CC2)cc(OC)c1OC (stereo not shown)	anaesthetized dog	%	55
COc1cccc(SCC(O)CN2CCN(C(=O)/C=C/c3cc(OC)c(OC)c(OC)c3)CC2)c1 (stereo not shown)	anaesthetized dog	%	34
COc1cc(/C=C/C(=O)N2CCN(CC(O)COc3ccc4c(c3)OCO4)CC2)cc(OC)c1OC (stereo not shown)	anaesthetized dog	%	53
COc1cc(/C=C/C(=O)N2CCN(CC(O)COc3ccc(C#N)cc3)CC2)cc(OC)c1OC (stereo not shown)	anaesthetized dog	%	75
COc1cc(/C=C/C(=O)N2CCN(CC(O)COc3ccc([N+](=O)[O-])cc3)CC2)cc(OC)c1OC (stereo not shown)	anaesthetized dog	%	48
COc1cc(/C=C/C(=O)N2CCN(CC(O)COc3cc(OC)c(OC)c(OC)c3)CC2)cc(OC)c1OC (stereo not shown)	anaesthetized dog	%	67
COc1cc(/C=C/C(=O)N2CCN(CC(O)CSc3ccccc3)CC2)cc(OC)c1OC (stereo not shown)	anaesthetized dog	%	58

###

- Test system: anaesthetized dog
- protocol details: Activity on the peripheral circulation, anaesthetized dog
- Assay type: in vivo
- condition set: dog, 5 mg/kg i.v. slow perfusion
Reported Average arterial pressure: in time values follow for various compounds
experimental readout: Average arterial pressure: in time (min)

compound	quantitative result
C=CCOc1ccccc1OCC(O)CN1CCN(C(=O)/C=C/c2cc(OC)c(OC)c(OC)c2)CC1 (stereo not drawn)	15
COc1cc(/C=C/C(=O)N2CCN(CC(O)COc3cccc(Cl)c3)CC2)cc(OC)c1OC (stereo not drawn)	10
COc1cc(/C=C/C(=O)N2CCN(CC(O)COc3ccc(C)cc3)CC2)cc(OC)c1OC (stereo not drawn)	23
COc1cc(/C=C/C(=O)N2CCN(CC(O)COc3ccc(C#N)cc3)CC2)cc(OC)c1OC (stereo not drawn)	35
COc1cc(/C=C/C(=O)N2CCN(CC(O)COc3ccccc3C)CC2)cc(OC)c1OC (stereo not drawn)	15
COc1cc(/C=C/C(=O)N2CCN(CC(O)COc3cccc(C)c3)CC2)cc(OC)c1OC (stereo not drawn)	30

###

Measured Femoral artery flow: in time accompanies every entry in the list below.
- Tested on: anaesthetized dog
- protocol details: Activity on the peripheral circulation, anaesthetized dog
- Assay type: in vivo
- condition set: dog, 5 mg/kg i.v. slow perfusion
experimental readout: Femoral artery flow: in time

compound	experimental readout	result
C(=C\c1ccccc1)/CN1CCN(C(c2ccccc2)c2ccccc2)CC1 [Cinnarizine, cinnarizine, reference compound]	Femoral artery flow: in time	30 min
COc1cc(/C=C/C(=O)N2CCN(CC(O)COc3ccc(C#N)cc3)CC2)cc(OC)c1OC (stereo not shown)	Femoral artery flow: in time	23 min
COc1cc(/C=C/C(=O)N2CCN(CC(O)COc3cccc(Cl)c3)CC2)cc(OC)c1OC (stereo not shown)	Femoral artery flow: in time	15 min
COc1cc(/C=C/C(=O)N2CCN(CC(O)COc3ccc(C)cc3)CC2)cc(OC)c1OC (stereo not shown)	Femoral artery flow: in time	15 min
C=CCOc1ccccc1OCC(O)CN1CCN(C(=O)/C=C/c2cc(OC)c(OC)c(OC)c2)CC1 (stereo not shown)	Femoral artery flow: in time	15 min
COc1cc(/C=C/C(=O)N2CCN(CC(O)COc3cccc(C)c3)CC2)cc(OC)c1OC (stereo not shown)	Femoral artery flow: in time	15 min
COc1cc(/C=C/C(=O)N2CCN(CC(O)COc3ccccc3C)CC2)cc(OC)c1OC (stereo not shown)	Femoral artery flow: in time	35 min
